READOUT KIND: melting point (°C)

[[record]]
compound = "CC(Oc1ccc2nc(NC(=O)NCCN3CCOCC3)[nH]c2c1)c1cc(F)ccc1Cl (centres unmarked)"
scale_unit = "°C"
quantitative_result = 210

[[record]]
compound = "CC(Oc1cc2sc(NC(=O)NCCCN3CCCC3=O)nc2cc1F)c1c(F)ccc(Cl)c1Cl (centres unmarked)"
scale_unit = "°C"
quantitative_result = 195

[[record]]
compound = "CC(Oc1ccc2nc(NC(=O)NCCN3CCOCC3)sc2c1)c1c(F)ccc(F)c1F (centres unmarked)"
scale_unit = "°C"
quantitative_result = 187

[[record]]
compound = "CC(Oc1cc2sc(NC(=O)NCCN3CCN(C)CC3)nc2cc1F)c1c(F)ccc(Cl)c1Cl (centres unmarked)"
scale_unit = "°C"
quantitative_result = 120

[[record]]
compound = "Cc1ccc(F)c(C(C)Oc2ccc3nc(N)sc3c2)c1Cl (centres unmarked)"
scale_unit = "°C"
quantitative_result = 170


====

- TARGET ENTITY: MET (Homo sapiens, UniProt P08581)
- Construct: endogenous in cells
- Sequence (P08581 25-1390): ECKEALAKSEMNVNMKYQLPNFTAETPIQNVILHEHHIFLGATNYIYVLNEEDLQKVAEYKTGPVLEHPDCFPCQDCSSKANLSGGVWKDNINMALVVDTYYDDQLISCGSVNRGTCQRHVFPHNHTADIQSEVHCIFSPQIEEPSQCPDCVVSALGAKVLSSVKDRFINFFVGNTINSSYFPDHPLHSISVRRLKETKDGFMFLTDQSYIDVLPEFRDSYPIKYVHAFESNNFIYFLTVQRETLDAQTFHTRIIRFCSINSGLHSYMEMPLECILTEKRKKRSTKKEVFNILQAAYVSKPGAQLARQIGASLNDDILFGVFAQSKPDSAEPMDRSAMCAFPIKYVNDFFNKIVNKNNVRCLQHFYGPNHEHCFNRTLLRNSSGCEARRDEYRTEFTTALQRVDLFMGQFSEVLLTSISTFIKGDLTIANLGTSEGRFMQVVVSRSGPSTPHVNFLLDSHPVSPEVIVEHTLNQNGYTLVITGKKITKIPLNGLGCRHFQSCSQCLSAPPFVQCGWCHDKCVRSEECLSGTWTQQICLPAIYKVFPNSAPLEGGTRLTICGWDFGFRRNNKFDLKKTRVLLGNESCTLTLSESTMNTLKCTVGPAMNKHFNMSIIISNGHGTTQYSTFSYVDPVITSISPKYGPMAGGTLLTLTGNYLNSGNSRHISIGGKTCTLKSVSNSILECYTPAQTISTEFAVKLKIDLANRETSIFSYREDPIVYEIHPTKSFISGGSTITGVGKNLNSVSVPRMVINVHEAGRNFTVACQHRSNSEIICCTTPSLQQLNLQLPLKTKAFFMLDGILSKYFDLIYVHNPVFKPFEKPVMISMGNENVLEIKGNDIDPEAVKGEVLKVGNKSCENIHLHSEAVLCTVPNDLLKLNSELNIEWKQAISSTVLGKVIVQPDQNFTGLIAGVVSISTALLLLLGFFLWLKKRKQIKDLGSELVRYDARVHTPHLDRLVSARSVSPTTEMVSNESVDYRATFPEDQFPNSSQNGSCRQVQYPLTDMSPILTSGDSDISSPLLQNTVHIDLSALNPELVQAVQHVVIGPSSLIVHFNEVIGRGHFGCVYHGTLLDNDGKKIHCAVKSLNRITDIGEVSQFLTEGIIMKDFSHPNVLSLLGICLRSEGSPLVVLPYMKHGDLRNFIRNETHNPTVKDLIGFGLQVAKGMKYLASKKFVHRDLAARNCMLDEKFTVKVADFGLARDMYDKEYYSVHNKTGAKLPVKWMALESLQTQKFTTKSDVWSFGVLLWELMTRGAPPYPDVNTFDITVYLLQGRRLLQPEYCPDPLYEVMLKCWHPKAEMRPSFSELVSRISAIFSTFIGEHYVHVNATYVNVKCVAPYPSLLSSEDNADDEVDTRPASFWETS
- EXPERIMENTAL DETAILS: Test C: inhibition of the autophosphorylation of MET, ELISA technique (pppY1230, 1234, 1235), MKN45 cells
pIC50: −log10 of the molar value.
This section presents compounds with their documented pIC50 values.

Illustrative cases are given below, each with its answer.
[[record]]
compound = "CC(Oc1cc2sc(NC(=O)NCCN(C)Cc3ccccc3)nc2cc1F)c1c(Cl)ccc(F)c1Cl (centres unmarked)"
result = "5.00 to 6.30"

[[record]]
compound = "CC(Oc1ccc2nc(NC(=O)NCCN3CCOCC3)sc2c1)c1ccccc1C(F)(F)F (centres unmarked)"
result = "5.00 to 6.30"

[[record]]
compound = "CC(Oc1cc2sc(NC(=O)NCCN3CCN(C)CC3)nc2cc1F)c1c(F)ccc(Cl)c1Cl (centres unmarked) [Example 115]"
result = "> 6.30"

[[record]]
compound = "CC(Oc1ccc2nc(NC(=O)NCCCn3cccc3)sc2c1)c1c(Cl)ccc(F)c1Cl (centres unmarked)"
result = "5.00 to 6.30"

[[record]]
compound = "CC(Oc1cc2sc(NC(=O)NCCN3CCN(C)CC3)nc2cc1F)c1c(Cl)ccc(F)c1Cl (centres unmarked) [Example 75]"
result = "> 6.30"

[[record]]
compound = "CC(Oc1cc2[nH]c(NC(=O)NCCN3CCOCC3)nc2cc1F)c1c(Cl)cccc1Cl (centres unmarked)"
result = "5.00 to 6.30"

[[record]]
compound = "CC(Oc1cc2sc(NC(=O)C3CC3)nc2cc1F)c1c(Cl)ccc(F)c1Cl (centres unmarked)"
result = "> 6.30"


Field: next compound
Query string: Fill in the blank: the reported pIC50 of CC(Oc1ccc2nc(NC(=O)OCCN3CCOCC3)sc2c1)c1c(Cl)ccc(F)c1Cl (centres unmarked) is ____.
Result string: > 6.30

====

This section presents molecules with their documented IC50 values.
- TARGET ENTITY: MET (Homo sapiens, UniProt P08581)
- Construct: endogenous in cells
- EXPERIMENTAL DETAILS: Test C: inhibition of the autophosphorylation of MET, ELISA technique (pppY1230, 1234, 1235), MKN45 cells

Query string: Fill in the blank: the reported IC50 of CC(Oc1ccc2nc(NC(=O)NCCCN3CCCCC3)sc2c1)c1c(Cl)ccc(F)c1Cl (stereo not shown) [Example 44] is ____.
Result string: < 500 nM

Query string: CC(Oc1ccc2nc(NC(=O)NCCN3CCCC3)sc2c1)c1c(F)ccc(Cl)c1Cl (single isomer, unassigned) [Example 121] , same question.
Result string: < 500 nM

Query string: CC(Oc1cc2sc(NC(=O)NCCCN3CCCC3=O)nc2cc1F)c1c(F)ccc(Cl)c1Cl (stereo not shown) [Example 114] , same question.
Result string: < 500 nM

Query string: CCN(CC)CCCOC(=O)Nc1nc2cc(F)c(OC(C)c3c(Cl)ccc(F)c3Cl)cc2s1 (stereo not shown) [Example 70] , same question.
Result string: 500 to 10000 nM

Query string: CC(Oc1ccc2nc(NC(=O)NCCN3CCCCCC3)sc2c1)c1c(Cl)ccc(F)c1Cl (stereo not shown) [Example 54] , same question.
Result string: < 500 nM

====

This section presents molecules with their documented melting point values.

Illustrative cases are given below, each with its answer.
[[record]]
molecule = "CC(Oc1cc2sc(NC(=O)NCCN3CCOCC3)nc2cc1F)c1c(Cl)ccc(F)c1Cl (centres unmarked) [Example 31]"
readout_kind = "melting point"
result = "226 to 228 °C"

[[record]]
molecule = "CC(Oc1cc2sc(NC(=O)NCCN3CCN(C)CC3)nc2cc1F)c1c(Cl)ccc(F)c1Cl (centres unmarked) [Example 75]"
readout_kind = "melting point"
result = "131 to 134 °C"

[[record]]
molecule = "CC(Oc1cc2[nH]c(NC(=O)NCCN3CCOCC3)nc2cc1F)c1c(Cl)ccc(F)c1Cl (centres unmarked) [Example 6]"
readout_kind = "melting point"
result = "190 to 192 °C"

[[record]]
molecule = "CCOCCNC(=O)Nc1nc2cc(F)c(OC(C)c3c(Cl)ccc(F)c3Cl)cc2s1 (centres unmarked) [Example 86]"
readout_kind = "melting point"
result = "166 to 167 °C"

[[record]]
molecule = "CC(Oc1ccc2nc(NC(=O)NCCN3CCCC3)sc2c1)c1c(F)ccc(Cl)c1Cl (centres unmarked) [Example 120]"
readout_kind = "melting point"
result = "110 to 115 °C"

[[record]]
molecule = "Cc1ccc(F)c(C(C)Oc2ccc3nc(NC(=O)NCCN4CCOCC4)sc3c2)c1F (centres unmarked) [Example 123]"
readout_kind = "melting point"
result = "92 to 95 °C"


Query string: Fill in the blank: the reported melting point of CC(Oc1ccc2nc(NC(=O)NCCN3CCN(C(=O)OC(C)(C)C)CC3)sc2c1)c1c(Cl)ccc(F)c1Cl (centres unmarked) [Example 36] is ____.
Result string: 87 °C

Query string: CC(Oc1ccc2nc(NC(=O)NCCN3CCOCC3)sc2c1)c1c(Cl)ccc(F)c1Cl (centres unmarked) [Example 24] , same question.
Result string: 110 °C

====

- TARGET ENTITY: MET (Homo sapiens, UniProt P08581)
- Construct: endogenous in cells
- EXPERIMENTAL DETAILS: Test C: inhibition of the autophosphorylation of MET, ELISA technique (pppY1230, 1234, 1235), MKN45 cells
pIC50: −log10 of the molar value. Counter-ions that a name gives are not always drawn.
This section presents compounds with their documented pIC50 values.

[[record]]
compound = "O=C(Nc1nc2cc(F)c(OCc3c(Cl)cccc3Cl)cc2s1)C1CC1"
target_entity = "MET (Homo sapiens, UniProt P08581)"
result = "5.00 to 6.30"

[[record]]
compound = "CC(Oc1ccc2nc(NC(=O)NCCN3CCOCC3)[nH]c2c1)c1c(Cl)ccc(F)c1Cl (centres unmarked) [Example 4, trifluoroacetate]"
target_entity = "MET (Homo sapiens, UniProt P08581)"
result = "5.00 to 6.30"

[[record]]
compound = "CC(Oc1ccc2nc(NC(=O)NCc3cccnc3)sc2c1)c1c(Cl)ccc(F)c1Cl (centres unmarked)"
target_entity = "MET (Homo sapiens, UniProt P08581)"
result = "5.00 to 6.30"


Query string: Fill in the blank: the reported pIC50 of CCN1CCN(CCNC(=O)Nc2nc3cc(F)c(OC(C)c4c(Cl)ccc(F)c4Cl)cc3s2)CC1 (single isomer, unassigned) [Example 102] is ____.
Result string: 5.00 to 6.30

Query string: CC(Oc1cc2sc(NC(=O)NCCN3CCN(C)CC3)nc2cc1F)c1c(F)ccc(Cl)c1Cl (single isomer, unassigned) [Example 116] , same question.
Result string: > 6.30

====

READOUT KIND: melting point

Illustrative cases are given below, each with its answer.
[[record]]
compound = "CC(Oc1ccc2nc(NC(=O)NCCN3CCOCC3)[nH]c2c1)c1c(Cl)cccc1Cl (centres unmarked)"
result = "215 to 220 °C"

[[record]]
compound = "CC(Oc1ccc2nc(NC(=O)C3CC3)sc2c1)c1c(Cl)ccc(F)c1Cl (centres unmarked)"
result = "194 to 199 °C"

[[record]]
compound = "CNCCNC(=O)Nc1nc2cc(F)c(OC(C)c3c(Cl)ccc(F)c3Cl)cc2s1 (centres unmarked)"
result = "173 to 188 °C"

[[record]]
compound = "O=C(NCCN1CCOCC1)Nc1nc2ccc(OCc3c(Cl)cccc3Cl)cc2s1"
result = "268 to 271 °C"


Query string: Fill in the blank: the reported melting point of CC(Oc1ccc2nc(NC(=O)NCCN3CCN(C)CC3)sc2c1)c1c(F)ccc(Cl)c1Cl (centres unmarked) is ____.
Result string: 105 to 110 °C

Query string: CC(Oc1cc2sc(NC(=O)C3CC3)nc2cc1F)c1c(Cl)ccc(F)c1Cl (centres unmarked) , same question.
Result string: 186 to 189 °C

Query string: CC(Oc1ccc2nc(N)sc2c1)c1c(Cl)ccc(F)c1Cl (centres unmarked) , same question.
Result string: 186 to 194 °C

Query string: CCN(CC)CCNC(=O)Nc1nc2ccc(OC(C)c3c(Cl)ccc(F)c3Cl)cc2s1 (centres unmarked) , same question.
Result string: 74 to 83 °C
